# target.entity: Akt2 (Homo sapiens)
# Sequence (P31751 whole entry): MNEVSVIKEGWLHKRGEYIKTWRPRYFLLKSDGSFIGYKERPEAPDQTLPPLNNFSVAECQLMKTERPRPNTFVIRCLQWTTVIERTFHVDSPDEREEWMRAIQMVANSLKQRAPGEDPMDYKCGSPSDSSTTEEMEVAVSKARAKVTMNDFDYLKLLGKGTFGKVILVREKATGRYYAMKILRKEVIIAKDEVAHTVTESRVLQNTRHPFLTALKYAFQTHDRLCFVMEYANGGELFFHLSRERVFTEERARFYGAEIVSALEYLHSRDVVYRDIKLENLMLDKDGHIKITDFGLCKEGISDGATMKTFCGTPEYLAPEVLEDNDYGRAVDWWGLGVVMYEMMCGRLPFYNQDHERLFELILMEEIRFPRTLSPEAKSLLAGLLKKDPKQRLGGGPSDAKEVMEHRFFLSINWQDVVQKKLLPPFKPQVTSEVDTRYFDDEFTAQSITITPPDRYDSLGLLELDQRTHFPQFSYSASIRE
# assay.method.text: PhosphoSens continuous fluorometric kinetic enzyme assay
# experimental.parameters: read-out: kinact Akt2
Listed here are compounds together with their documented kinact.

structure: C=CC(=O)Nc1ccc2[nH]c(=O)n(C3CCN(Cc4ccc(-c5ncc(Cc6cccnc6)cc5-c5ccccc5)cc4)CC3)c2c1
kinact (s⁻¹): 0.000233
//
structure: C=CC(=O)Nc1ccc2[nH]c(=O)n(C3CCN(Cc4ccc(-c5ncc(Cc6cn[nH]c6)cc5-c5ccccc5)cc4)CC3)c2c1
kinact (s⁻¹): 0.000267
//
structure: C=CC(=O)Nc1ccc2[nH]c(=O)n(C3CCN(Cc4ccc(-c5ncc(C(=O)Nc6cccnc6)cc5-c5ccccc5)cc4)CC3)c2c1
kinact (s⁻¹): 0.000233

Where do these numbers come from? They come from paper PMC8421423.
